target: human TMEM106B (human, UniProt Q9NUM4 2-274); experiment: cell-based or functional assay; note: test concentration or dose not given here
Parameter: % Protection from CPE (%)
Form entry: value (%) — number only.

Binder	% Protection from CPE (%)
TM-66 (antibody, V domains shown, mouse hybridoma mAb) VH: EVMLVESGGALVEPGGSLKLSCAASGITFSNYAMSWIRQTPEKRLEWVATIGSVGSYTYYPDSVKGRFTISRDNARNTLYLQMSSLRSEDTAMYYCARQEGSSHFDYWGQGTTLTVSS VL: DVVVTQTPPSLPVSFGDQVSISCRSSQSLVNSYGKTFLSWYLHKPGQSPQLLIYGISNRFSGVPDRFSGSGSGTVFTLKISTIKPEDLGMYYCLQGTHPPLTFGAGTKLEMK	5.9

Continue with the binder presented below.
Return reported % Protection from CPE. Input binder: TM-29 (antibody, V domains shown) VH: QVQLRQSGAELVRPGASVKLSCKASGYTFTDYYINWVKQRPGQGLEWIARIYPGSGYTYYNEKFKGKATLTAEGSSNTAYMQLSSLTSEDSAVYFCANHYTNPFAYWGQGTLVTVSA VL: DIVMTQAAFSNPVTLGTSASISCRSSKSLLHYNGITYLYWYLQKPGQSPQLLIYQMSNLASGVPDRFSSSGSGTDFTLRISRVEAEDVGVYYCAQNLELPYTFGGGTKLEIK
92.6
